Tested on: 328373-195-R-J1-PDC complex spheroids, viability % test/control
Assay: Anticancer human tumor 328373-195-R-J1-PDC patient-derived head and neck squamous carcinoma cell line growth inhibition [CLK]
Details: curve of first compound; second compound 0.1 µM
readout.label: IC50

>>> result("CCc1c2c(nc3ccc(O)cc13)-c1cc3c(c(=O)n1C2)COC(=O)[C@]3(O)CC + CN1CCN(c2cc(C(=O)Nc3cc4cc(-c5cnn(C)c5)ccc4cn3)ccn2)CC1")
"< 3.16 nM"
>>> result("Cn1ncnc1[C@H]1c2n[nH]c(=O)c3cc(F)cc(c23)N[C@@H]1c1ccc(F)cc1 + CN1CCN(c2cc(C(=O)Nc3cc4cc(-c5cnn(C)c5)ccc4cn3)ccn2)CC1")
"> 100 nM"
>>> result("CC(Nc1ccc2c(c1)OCCn1cc(N3C(=O)OCC3C(F)F)nc1-2)C(N)=O (stereo not drawn) + CNC(=O)c1ccc(Nc2nc(OC3CCCC3)c3c(-c4ccc5nc(C)oc5c4)c[nH]c3n2)c(OC)c1")
"< 31.6 nM"

----------
Test system: 328373-195-R-J1-PDC complex spheroids, viability % test/control
Assay: Anticancer human tumor 328373-195-R-J1-PDC cell line growth inhibition [CLK];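 further: spheroids exposed to the agents for 7 days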
Details: second compound 0.1 µM; first compound 0.0316 µM; stronger effect = lower value
readout.label: viability, T/C (%)

>>> numeric_readout("Cn1ncnc1[C@H]1c2n[nH]c(=O)c3cc(F)cc(c23)N[C@@H]1c1ccc(F)cc1 + CN1CCN(c2cc(C(=O)Nc3cc4cc(-c5cnn(C)c5)ccc4cn3)ccn2)CC1")
85.8
>>> numeric_readout("Nc1ccn(C2OC(CO)C(O)C2(F)F)c(=O)n1 (stereo not drawn) + CN1CCN(c2cc(C(=O)Nc3cc4cc(-c5cnn(C)c5)ccc4cn3)ccn2)CC1")
4.42
>>> numeric_readout("CCc1c2c(nc3ccc(O)cc13)-c1cc3c(c(=O)n1C2)COC(=O)[C@]3(O)CC + CN1CCN(c2cc(C(=O)Nc3cc4cc(-c5cnn(C)c5)ccc4cn3)ccn2)CC1")
2.78

----------
Tested on: 328373-195-R-J1-PDC complex spheroids, viability % test/control
Assay: Anticancer human tumor 328373-195-R-J1-PDC cell line growth inhibition [CLK]; active means viability on the fitted dose curve at most 10% of control; inactive means the rest;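 further: spheroids exposed to the agents for 7 days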
Settings: second compound 0.1 µM; first compound 3.16 µM
Classes used: 1 for active, -1 for inactive

>>> label("COc1cccc2c1C(=O)c1c(O)c3c(c(O)c1C2=O)CC(O)(C(=O)CO)CC3OC1CC(N)C(O)C(C)O1 (stereo not given) + CNC(=O)c1ccc(Nc2nc(OC3CCCC3)c3c(-c4ccc5nc(C)oc5c4)c[nH]c3n2)c(OC)c1")
1
>>> label("CC(Nc1ccc2c(c1)OCCn1cc(N3C(=O)OCC3C(F)F)nc1-2)C(N)=O (stereo not given) + CN1CCN(c2cc(C(=O)Nc3cc4cc(-c5cnn(C)c5)ccc4cn3)ccn2)CC1")
-1
>>> label("C#Cc1c(F)ccc2cc(O)cc(-c3ncc4c(N5CC6CCC(C5)N6)nc(OCC56CCCN5CC(F)C6)nc4c3F)c12 (stereo not given) + CNC(=O)c1ccc(Nc2nc(OC3CCCC3)c3c(-c4ccc5nc(C)oc5c4)c[nH]c3n2)c(OC)c1")
1
>>> label("CCCS(=O)(=O)Nc1ccc(F)c(C(=O)c2c[nH]c3ncc(-c4ccc(Cl)cc4)cc23)c1F + CN1CCN(c2cc(C(=O)Nc3cc4cc(-c5cnn(C)c5)ccc4cn3)ccn2)CC1")
-1
>>> label("C=C(F)C(=O)N1CCN(c2nc(OCC3CCCN3C)nc3c2CCN(c2cccc4cccc(Cl)c24)C3)CC1CC#N (stereo not given) + CNC(=O)c1ccc(Nc2nc(OC3CCCC3)c3c(-c4ccc5nc(C)oc5c4)c[nH]c3n2)c(OC)c1")
1
